Consider the following molecules; for each one, report its selectivity ratio.
Assay: Selectivity index, ratio of IC50 for cytotoxicity against African green monkey Vero cells to antiplasmodial activity against sorbitol-synchronized ring stage chloroquine resistant Plasmodium falciparum W2 infected in human erythrocytes
Assay type: toxicity, cell-based
Conditions: read-out: Ratio IC50

[ask] What selectivity ratio value was documented for this molecule, COc1ccccc1NC(=S)N1CCN(c2nc(N3CCC4(CC3)CC(=O)c3ccccc3O4)c3ccccc3n2)CC1 ?
[reply] > 195

[ask] What selectivity ratio value was documented for this molecule, O=C1CC2(CCN(c3nc(N4CCN(C(=S)Nc5ccc(F)c(Cl)c5)CC4)nc4ccccc34)CC2)Oc2ccccc21 ?
[reply] > 281

[ask] What selectivity ratio value was documented for this molecule, O=C1CC2(CCN(c3nc(N4CCN(C(=S)Nc5ccccc5Cl)CC4)nc4ccccc34)CC2)Oc2ccccc21 ?
[reply] > 226

[ask] What selectivity ratio value was documented for this molecule, O=C1CC2(CCN(c3nc(N4CCN(C(=S)NCc5ccccc5)CC4)nc4ccccc34)CC2)Oc2ccccc21 ?
[reply] > 69.6

[ask] What selectivity ratio value was documented for this molecule, Cc1cccc(C)c1NC(=S)N1CCN(c2nc(N3CCC4(CC3)CC(=O)c3ccccc3O4)c3ccccc3n2)CC1 ?
[reply] > 140

[ask] What selectivity ratio value was documented for this molecule, O=C1CC2(CCN(c3nc(N4CCN(C(=S)Nc5ccc(F)cc5)CC4)nc4ccccc34)CC2)Oc2ccccc21 ?
[reply] > 111

---

System: A549
Experiment: Cytotoxicity against human A549 cells assessed as inhibition of cell growth incubated for 24 hrs by MTT assay
Type: functional, cell-based
Conditions: A549, 24 h
pIC50: −log10 of the molar value.
# binarize pIC50: threshold 4 inclusive, high side T, low side F

[ask] Test whether the molecule O=C1CC2(CCN(c3nc(N4CCN(C(=S)Nc5ccc(F)cc5)CC4)nc4ccccc34)CC2)Oc2ccccc21 records pIC50 of 4 or higher.
[reply] F

[ask] Test whether the molecule O=C1CC2(CCN(c3nc(N4CCN(C(=S)Nc5ccc(F)c(Cl)c5)CC4)nc4ccccc34)CC2)Oc2ccccc21 records pIC50 of 4 or higher.
[reply] T

[ask] Test whether the molecule O=C1CC2(CCN(c3nc(N4CCN(C(=S)Nc5ccccc5Cl)CC4)nc4ccccc34)CC2)Oc2ccccc21 records pIC50 of 4 or higher.
[reply] T

[ask] Test whether the molecule O=C1CC2(CCN(c3nc(N4CCN(C(=S)NCc5ccccc5)CC4)nc4ccccc34)CC2)Oc2ccccc21 records pIC50 of 4 or higher.
[reply] F

---

Assay: Resistance index, ratio of IC50 for antiplasmodial activity against chloroquine sensitive Plasmodium falciparum 3D7 infected in human erythrocytes to antiplasmodial activity against chloroquine resistant Plasmodium falciparum W2 infected in human erythrocytes
Format: functional
assay-metric: Ratio IC50
The reply should be a number, written without any unit.

[ask] What Ratio IC50 value was documented for this compound, COc1ccccc1NC(=S)N1CCN(c2nc(N3CCC4(CC3)CC(=O)c3ccccc3O4)c3ccccc3n2)CC1 ?
[reply] 0.66

[ask] What Ratio IC50 value was documented for this compound, O=C1CC2(CCN(c3nc(N4CCN(C(=S)Nc5ccc(Br)cc5)CC4)nc4ccccc34)CC2)Oc2ccccc21 ?
[reply] 1.51

[ask] What Ratio IC50 value was documented for this compound, O=C1CC2(CCN(c3nc(N4CCN(C(=S)NCc5ccccc5)CC4)nc4ccccc34)CC2)Oc2ccccc21 ?
[reply] 0.33

[ask] What Ratio IC50 value was documented for this compound, O=C1CC2(CCN(c3nc(N4CCN(C(=S)Nc5ccccc5Cl)CC4)nc4ccccc34)CC2)Oc2ccccc21 ?
[reply] 0.9

[ask] What Ratio IC50 value was documented for this compound, COc1cccc(NC(=S)N2CCN(c3nc(N4CCC5(CC4)CC(=O)c4ccccc4O5)c4ccccc4n3)CC2)c1 ?
[reply] 1.47

[ask] What Ratio IC50 value was documented for this compound, O=C1CC2(CCN(c3nc(N4CCN(C(=S)Nc5ccc(F)c(Cl)c5)CC4)nc4ccccc34)CC2)Oc2ccccc21 ?
[reply] 0.89

[ask] What Ratio IC50 value was documented for this compound, O=C1CC2(CCN(c3nc(N4CCN(C(=S)Nc5ccc(F)cc5)CC4)nc4ccccc34)CC2)Oc2ccccc21 ?
[reply] 0.52

[ask] What Ratio IC50 value was documented for this compound, Cc1cccc(C)c1NC(=S)N1CCN(c2nc(N3CCC4(CC3)CC(=O)c3ccccc3O4)c3ccccc3n2)CC1 ?
[reply] 0.68

---

Assay: Selectivity index, ratio of IC50 for cytotoxicity against African green monkey Vero cells to antiplasmodial activity against sorbitol-synchronized ring stage chloroquine sensitive Plasmodium falciparum 3D7 infected in human erythrocytes
Format: toxicity, cell-based
Conditions: read-out: Ratio IC50
Consider the following molecules; for each one, report its selectivity ratio.

[ask] What selectivity ratio value was documented for this molecule, O=C1CC2(CCN(c3nc(N4CCN(C(=S)Nc5ccc(F)cc5)CC4)nc4ccccc34)CC2)Oc2ccccc21 ?
[reply] > 215

[ask] What selectivity ratio value was documented for this molecule, COc1ccccc1NC(=S)N1CCN(c2nc(N3CCC4(CC3)CC(=O)c3ccccc3O4)c3ccccc3n2)CC1 ?
[reply] > 292

[ask] What selectivity ratio value was documented for this molecule, O=C1CC2(CCN(c3nc(N4CCN(C(=S)Nc5ccc(F)c(Cl)c5)CC4)nc4ccccc34)CC2)Oc2ccccc21 ?
[reply] > 314

[ask] What selectivity ratio value was documented for this molecule, Cc1cccc(C)c1NC(=S)N1CCN(c2nc(N3CCC4(CC3)CC(=O)c3ccccc3O4)c3ccccc3n2)CC1 ?
[reply] > 207

[ask] What selectivity ratio value was documented for this molecule, O=C1CC2(CCN(c3nc(N4CCN(C(=S)Nc5ccccc5Cl)CC4)nc4ccccc34)CC2)Oc2ccccc21 ?
[reply] > 251

[ask] What selectivity ratio value was documented for this molecule, O=C1CC2(CCN(c3nc(N4CCN(C(=S)NCc5ccccc5)CC4)nc4ccccc34)CC2)Oc2ccccc21 ?
[reply] > 209

---

Assay: Selectivity index, ratio of IC50 for cytotoxicity against human […] cells to antiplasmodial activity against sorbitol-synchronized ring stage chloroquine sensitive Plasmodium falciparum 3D7 infected in human erythrocytes
Assay type: cell-based
Settings: read-out: Ratio IC50
assay-metric: selectivity ratio
The reply should be a number, written without any unit.

[ask] What selectivity ratio value was documented for this molecule, O=C1CC2(CCN(c3nc(N4CCN(C(=S)Nc5ccc(F)c(Cl)c5)CC4)nc4ccccc34)CC2)Oc2ccccc21 ?
[reply] 18.3

[ask] What selectivity ratio value was documented for this molecule, O=C1CC2(CCN(c3nc(N4CCN(C(=S)Nc5ccccc5Cl)CC4)nc4ccccc34)CC2)Oc2ccccc21 ?
[reply] 16.9

[ask] What selectivity ratio value was documented for this molecule, O=C1CC2(CCN(c3nc(N4CCN(C(=S)NCc5ccccc5)CC4)nc4ccccc34)CC2)Oc2ccccc21 ?
[reply] 44.7

[ask] What selectivity ratio value was documented for this molecule, O=C1CC2(CCN(c3nc(N4CCN(C(=S)Nc5ccc(F)cc5)CC4)nc4ccccc34)CC2)Oc2ccccc21 ?
[reply] 65.8

[ask] What selectivity ratio value was documented for this molecule, COc1ccccc1NC(=S)N1CCN(c2nc(N3CCC4(CC3)CC(=O)c3ccccc3O4)c3ccccc3n2)CC1 ?
[reply] 24.1

[ask] What selectivity ratio value was documented for this molecule, Cc1cccc(C)c1NC(=S)N1CCN(c2nc(N3CCC4(CC3)CC(=O)c3ccccc3O4)c3ccccc3n2)CC1 ?
[reply] 21

---

Consider the following molecules; for each one, report its selectivity ratio.
Assay: Selectivity index, ratio of IC50 for cytotoxicity against human […] cells to antiplasmodial activity against sorbitol-synchronized ring stage chloroquine resistant Plasmodium falciparum W2 infected in human erythrocytes
Format: cell-based
Details: read-out: Ratio IC50
The reply should be a number, written without any unit.

[ask] What selectivity ratio value was documented for this molecule, COc1ccccc1NC(=S)N1CCN(c2nc(N3CCC4(CC3)CC(=O)c3ccccc3O4)c3ccccc3n2)CC1 ?
[reply] 16.1

[ask] What selectivity ratio value was documented for this molecule, O=C1CC2(CCN(c3nc(N4CCN(C(=S)Nc5ccc(F)cc5)CC4)nc4ccccc34)CC2)Oc2ccccc21 ?
[reply] 34.1

[ask] What selectivity ratio value was documented for this molecule, Cc1cccc(C)c1NC(=S)N1CCN(c2nc(N3CCC4(CC3)CC(=O)c3ccccc3O4)c3ccccc3n2)CC1 ?
[reply] 14.3

[ask] What selectivity ratio value was documented for this molecule, O=C1CC2(CCN(c3nc(N4CCN(C(=S)Nc5ccc(F)c(Cl)c5)CC4)nc4ccccc34)CC2)Oc2ccccc21 ?
[reply] 16.4

[ask] What selectivity ratio value was documented for this molecule, O=C1CC2(CCN(c3nc(N4CCN(C(=S)Nc5ccccc5Cl)CC4)nc4ccccc34)CC2)Oc2ccccc21 ?
[reply] 15.2

[ask] What selectivity ratio value was documented for this molecule, O=C1CC2(CCN(c3nc(N4CCN(C(=S)NCc5ccccc5)CC4)nc4ccccc34)CC2)Oc2ccccc21 ?
[reply] 14.9

---

Test: Hemolytic activity in human Red blood cells assessed as hemolysis at 100 uM incubated for 2 hrs by spectrofluorimetric analysis
Type: toxicity, cell-based
Conditions: erythrocyte

[
  {
    "compound-string": "COc1ccccc1NC(=S)N1CCN(c2nc(N3CCC4(CC3)CC(=O)c3ccccc3O4)c3ccccc3n2)CC1",
    "Activity": "Non-toxic"
  },
  {
    "compound-string": "O=C1CC2(CCN(c3nc(N4CCN(C(=S)Nc5ccc(F)c(Cl)c5)CC4)nc4ccccc34)CC2)Oc2ccccc21",
    "Activity": "Non-toxic"
  },
  {
    "compound-string": "Cc1cccc(C)c1NC(=S)N1CCN(c2nc(N3CCC4(CC3)CC(=O)c3ccccc3O4)c3ccccc3n2)CC1",
    "Activity": "Non-toxic"
  },
  {
    "compound-string": "O=C1CC2(CCN(c3nc(N4CCN(C(=S)Nc5ccccc5Cl)CC4)nc4ccccc34)CC2)Oc2ccccc21",
    "Activity": "Non-toxic"
  }
]
